Test system: L1210 (1565)
Test: Concentration to inhibit cell growth was measured on L1210:1565 cell line
Type: functional, cell-based
Conditions: Mus musculus
Kindly supply the reported IC50 values for the records listed here.
Write down the numeric answer in µM and omit the unit.

input: Let me know recorded IC50 for C#CCN(Cc1ccc2nc(C)nc(O)c2c1)c1ccc(C(=O)N[C@@H](C(=O)O)C(C)C)cc1 , thanks.
output: 23

input: Let me know recorded IC50 for C#CCN(Cc1ccc2nc(C)nc(O)c2c1)c1ccc(C(=O)NCc2cncs2)cc1 , thanks.
output: 0.4

input: Let me know recorded IC50 for C#CCN(Cc1ccc2nc(C)nc(O)c2c1)c1ccc(C(=O)N[C@@H](C(=O)O)c2cccc([N+](=O)[O-])c2)cc1 , thanks.
output: 13

input: Let me know recorded IC50 for C#CCN(Cc1cc2c(O)nc(C)nc2cc1C)c1ccc(C(=O)NCc2cccc(C#N)c2)c(F)c1 , thanks.
output: 0.09

input: Let me know recorded IC50 for C#CCN(Cc1ccc2nc(C)nc(O)c2c1)c1ccc(C(=O)NCc2ccccc2[N+](=O)[O-])cc1 , thanks.
output: 7.5

input: Let me know recorded IC50 for C#CCN(Cc1ccc2nc(C)nc(O)c2c1)c1ccc(C(=O)NCc2nccs2)cc1 , thanks.
output: 5

input: Let me know recorded IC50 for C#CCN(Cc1cc2c(O)nc(C)nc2cc1C)c1ccc(C(=O)NCc2nccs2)c(F)c1 , thanks.
output: 0.5

input: Let me know recorded IC50 for C#CCN(Cc1ccc2nc(C)nc(O)c2c1)c1ccc(C(=O)NCc2cccc([N+](=O)[O-])c2)cc1 , thanks.
output: 0.4

input: Let me know recorded IC50 for C#CCN(Cc1ccc2nc(C)nc(O)c2c1)c1ccc(C(=O)NCc2cscn2)cc1 , thanks.
output: 4.8
